assayed.system: furin, P09958;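 further: purified furin at 1:10 enzyme:substrate in 50 mM HEPES pH 7.5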
Sequence (P09958 whole entry): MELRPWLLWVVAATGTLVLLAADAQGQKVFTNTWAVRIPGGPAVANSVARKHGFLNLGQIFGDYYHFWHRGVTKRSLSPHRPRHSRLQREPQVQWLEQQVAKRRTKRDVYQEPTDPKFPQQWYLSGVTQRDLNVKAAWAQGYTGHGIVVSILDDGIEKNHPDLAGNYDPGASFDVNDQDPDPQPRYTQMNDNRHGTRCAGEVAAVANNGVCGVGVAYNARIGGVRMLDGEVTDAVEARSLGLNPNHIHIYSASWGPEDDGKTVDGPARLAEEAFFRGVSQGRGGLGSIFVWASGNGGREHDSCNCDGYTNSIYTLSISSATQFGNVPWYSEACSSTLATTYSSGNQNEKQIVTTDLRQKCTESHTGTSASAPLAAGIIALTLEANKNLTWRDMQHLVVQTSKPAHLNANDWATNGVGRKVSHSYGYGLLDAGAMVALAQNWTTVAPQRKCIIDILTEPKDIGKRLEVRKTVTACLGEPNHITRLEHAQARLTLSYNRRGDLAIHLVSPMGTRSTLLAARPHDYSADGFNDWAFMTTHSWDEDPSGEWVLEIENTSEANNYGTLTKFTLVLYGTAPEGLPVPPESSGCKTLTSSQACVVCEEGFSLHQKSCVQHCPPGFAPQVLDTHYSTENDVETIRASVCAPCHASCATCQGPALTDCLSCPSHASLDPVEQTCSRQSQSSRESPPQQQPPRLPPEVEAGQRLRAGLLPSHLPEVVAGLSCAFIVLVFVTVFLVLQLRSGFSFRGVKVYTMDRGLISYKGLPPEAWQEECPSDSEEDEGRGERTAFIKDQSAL
assay.remarks: furin cleavage Z-score vs untreated control; higher = more cleavage, active = 3.5 or more, inactive = 1 or less, 8 variable residues between constant flanks
assay.conditions: 7.5 min
The list shows a part of the results. No count for the full screen is at hand.
Mark No for furin cleavage Z-score values under 5, and Yes for everything at or above.

Query: Is furin cleavage Z-score at least 5? Consider CADSSVLCECAGNASASA [HC917]
Response: No

Query: I'd appreciate it if you could say whether CAAGARKKRAAGNASASA [FS-970] has furin cleavage Z-score at least equal to 5.
Response: Yes

Query: Is it the case that CARPRRFMDLAGNASASA [FS-3163] has furin cleavage Z-score reaching or exceeding 5?
Response: No

The measurements presented in this section are drawn from the supplement of paper PMC3545927.
